- System: T47D cells
- methodDescription: Cellular growth inhibition assay for T47D cells
- Format: cell-based
- conditionLabel: Homo sapiens, 72 hours, CellTiter-Glo 2.0
# key: entry, value: GI50

Guide cases for GI50, answers given:
| substanceSmiles | GI50 |
| --- | --- |
| CCc1cnn2c(NCc3ccc(OCCCN4CCN(CC5CCN(c6ncc(C(=O)N[C@H]7C(C)(C)[C@H](Oc8ccc(C#N)c(Cl)c8)C7(C)C)cn6)CC5)CC4)nc3)cc(-c3ccccc3)nc12 | 1.5 to 3 µM |
| CCc1cnn2c(NCc3ccc(N(C)CC4CCN(CC5CCN(c6ncc(C(=O)N[C@H]7C(C)(C)[C@H](Oc8ccc(C#N)c(Cl)c8)C7(C)C)cn6)CC5)CC4)nc3)cc(N3CCCC[C@H]3CCO)nc12 | < 0.5 µM |
| CCc1cnn2c(NCc3ccc(OC4CCN(CC5CCN(c6ncc(C(=O)N[C@H]7C(C)(C)[C@H](Oc8ccc(C#N)c(Cl)c8)C7(C)C)cn6)CC5)CC4)nc3)cc(N3CCCC[C@H]3CCO)nc12 | < 0.5 µM |

Field: next compound
Q: # return GI50 of CCc1cnn2c(NCc3ccc(N4CCN(C5CCN(C6CN(c7ncc(C(=O)N[C@H]8C(C)(C)[C@H](Oc9ccc(C#N)c(Cl)c9)C8(C)C)cn7)C6)CC5)CC4)nc3)cc(N3CCCC[C@H]3CCO)nc12 (system: T47D cells)
Ans: < 0.5 µM

----------
# key: entry, value: GI50
- System: T47D cells
- methodDescription: Cellular growth inhibition assay for T47D cells
- Assay type: cell-based
- conditionLabel: Homo sapiens, 72 hours, CellTiter-Glo 2.0

Q: # return GI50 of CC1(C)[C@H](NC(=O)c2cnc(N3CCC(OCCOCCOCCNS(=O)(=O)c4ccc(Nc5ncc(Br)c(Nc6cccc(F)c6C(N)=O)n5)cc4)CC3)nc2)C(C)(C)[C@H]1Oc1ccc(C#N)c(Cl)c1 (system: T47D cells)
Ans: 0.5 to 1.5 µM

----------
# key: entry, value: GI50
- Tested on: T47D cells
- methodDescription: Cellular growth inhibition assay for T47D cells
- Assay type: cell-based
- conditionLabel: Homo sapiens, 72 hours, CellTiter-Glo 2.0

| molecule | GI50 |
| --- | --- |
| CCc1cnn2c(NCc3ccc(N4CCC(OCCC5CCN(c6ncc(C(=O)N[C@H]7C(C)(C)[C@H](Oc8ccc(C#N)c(Cl)c8)C7(C)C)cn6)CC5)C4)nc3)cc(N3CCCC[C@H]3CCO)nc12 (stereo partly drawn) | 500 to 1500 nM |
| CC1(C)[C@H](NC(=O)c2cnc(N3CCC(CN4CCN(CCN5C/C=C/CCOc6cccc(c6)-c6ccnc(n6)Nc6cccc(c6)C5)CC4)CC3)nc2)C(C)(C)[C@H]1Oc1ccc(C#N)c(Cl)c1 | > 3000 nM |
| CCc1cnn2c(NCc3ccc(N4CC(N5CCC(C6CCN(c7ncc(C(=O)N[C@H]8C(C)(C)[C@H](Oc9ccc(C#N)c(Cl)c9)C8(C)C)cn7)CC6)CC5)C4)nc3)cc(N3CCCC[C@H]3CCO)nc12 | 1500 to 3000 nM |
| CCc1cnn2c(NCc3ccc(OCCOCCOCCOC4CCN(c5ncc(C(=O)N[C@H]6C(C)(C)[C@H](Oc7ccc(C#N)c(Cl)c7)C6(C)C)cn5)CC4)nc3)cc(N3CCCC[C@H]3CCO)nc12 | < 500 nM |
| CC1(C)[C@H](NC(=O)c2cnc(N3CCC(OCCOCCOCCOCCOCCNS(=O)(=O)c4ccc(Nc5ncc(Br)c(Nc6cccc(F)c6C(N)=O)n5)cc4)CC3)nc2)C(C)(C)[C@H]1Oc1ccc(C#N)c(Cl)c1 | 500 to 1500 nM |

Field: next molecule
Q: Supply GI50 value. Item: CCc1cnn2c(NCc3ccc(N(C)CCCN4CCC(C5CN(c6ncc(C(=O)N[C@H]7C(C)(C)[C@H](Oc8ccc(C#N)c(Cl)c8)C7(C)C)cn6)C5)CC4)nc3)cc(N3CCCC[C@H]3CCO)nc12
Ans: 500 to 1500 nM
